Could you please report measured melting point for the items listed next?

Problem: Identify measured melting point corresponding to "COC(=O)c1ccc(-c2nnc(-c3ccc(C(F)(F)F)cc3)o2)cc1"
Result: 216 to 217 °C

Problem: Identify measured melting point corresponding to "CCOC(=O)COc1ccc(C(=O)c2ccoc2)c2ccccc12"
Result: 103 °C

Problem: Identify measured melting point corresponding to "CN(CCOc1ccc(C=C2SC(=O)NC2=O)cc1)c1nccs1"
Result: 212 °C

Problem: Identify measured melting point corresponding to "CCOC(=O)c1cccc(-c2ccc(Cl)c3cc(CO)sc23)c1"
Result: 119 to 120 °C

Problem: Identify measured melting point corresponding to "c1ccc2c(c1)NCc1nnnn1-2"
Result: 149 to 151 °C

Problem: Identify measured melting point corresponding to "C/C(=C(\C#N)C(=S)/N=C/N(C)C)N1CCCN(c2ccc(C)c(F)c2)CC1"
Result: 254 to 256 °C

Problem: Identify measured melting point corresponding to COc1ccc2c(c1)C1(CCN(CCCC(=O)c3ccc(F)cc3)C1)CC2O (stereo not given)
Result: 163 to 165 °C

Problem: Identify measured melting point corresponding to "O=C(O)COc1ccc(C=CC(=O)c2ccc(C(=O)O)cc2)cc1"
Result: 312 to 314 °C

Problem: Identify measured melting point corresponding to "CCCN(Cc1ccccc1)c1cccc(-c2nc(NC)nc3cc(OC)c(OC)cc23)c1"
Result: 75 to 77 °C

Problem: Identify measured melting point corresponding to "COC(=O)c1cc(OC)c(OCc2ccccc2)c(C23CC4CC(CC(C4)C2)C3)c1"
Result: 229 °C

Problem: Identify measured melting point corresponding to "CCc1cc(C)c(Br)c(CC)c1-c1c(O)c(C)nn(C)c1=O"
Result: 235 to 236 °C

Problem: Identify measured melting point corresponding to "O=C(Nc1cccc2c(N3CCN(Cc4ccccc4)C3=O)ccnc12)c1c(Cl)cccc1Cl"
Result: 178 to 191 °C

Problem: Identify measured melting point corresponding to "COC(=O)CC[C@H](NC(=O)c1ccc(OCc2ccccc2)cc1)C(=O)OC"
Result: 108 to 109 °C

Problem: Identify measured melting point corresponding to "Cc1nc2ncnn2c2c1c(O)c(O)n2C"
Result: 215 to 217 °C

Problem: Identify measured melting point corresponding to "c1ccc(N=C2N=C(c3ccccc3)N=C2Nc2ccccc2)cc1"
Result: 201 °C

Problem: Identify measured melting point corresponding to CC(Cl)C(=O)c1ccc(OCCCN2C(=O)c3ccccc3C2=O)cc1 (stereo not given)
Result: 137 to 138 °C

Problem: Identify measured melting point corresponding to "CCCc1nc2c(N)nc3cc(Oc4ccccc4C(=O)OC)ccc3c2n1CC(C)C"
Result: 167 to 168 °C

Problem: Identify measured melting point corresponding to "O=C(Nc1ccccc1Cl)c1ccccc1SSc1ccccc1C(=O)Nc1ccccc1Cl"
Result: 247 to 249 °C

Problem: Identify measured melting point corresponding to "O=C(NCCCCn1cncn1)c1ccc(Cl)s1"
Result: 97 to 99 °C

Problem: Identify measured melting point corresponding to "C=C(C)C(=O)Oc1c(Cc2cc(C)cc(C(C)(C)C)c2O)cc(C)cc1C(C)(C)C"
Result: 144 to 146 °C

* * *

reported-property: melting point

Problem: Identify measured melting point corresponding to "CCCc1c(OCCCCCOc2ccc3ccc(OCC(=O)O)cc3c2C(C)=O)ccc(C(C)=O)c1O"
Result: 103 to 106 °C

Problem: Identify measured melting point corresponding to "C[C@H](O)CNc1cc(Oc2ccc(F)cc2F)nc2[nH]nc(-c3ccccc3Cl)c12"
Result: 238 °C

Problem: Identify measured melting point corresponding to "O=C(C1CCN(S(=O)(=O)c2ccc(Br)cc2)CC1)N1CCN(c2ccncn2)CC1"
Result: 171 to 174 °C

Problem: Identify measured melting point corresponding to "CCOC(=O)C(C)(C)Sc1ncnc2c(O)n(C)nc12"
Result: 155 to 156 °C

Problem: Identify measured melting point corresponding to "O=C(O)CCc1ccc(CNC(=O)OCC2c3ccccc3-c3ccccc32)cc1"
Result: 164 to 166 °C

Problem: Identify measured melting point corresponding to "Cn1c(-c2ccccc2Sc2nc3ccccc3[nH]2)nc2ccccc21"
Result: 246 to 247 °C

Problem: Identify measured melting point corresponding to "CCC1(CC)c2cc(Br)ccc2-c2ccc(I)cc21"
Result: 162 to 164 °C

Problem: Identify measured melting point corresponding to "CCOCCc1cc(C)c(OCC=NO)cc1C"
Result: 66 to 70 °C

Problem: Identify measured melting point corresponding to "Cc1ccc(S(=O)(=O)c2c(O)c3ccccc3n(C)c2=O)cc1"
Result: 191 °C

Problem: Identify measured melting point corresponding to "Cc1cc(F)ccc1-c1nc(NC(C)(C)CO)nc2c1ccc(=O)n2-c1c(F)cccc1F"
Result: 99 to 105 °C

Recorded values, source a melting point compilation (Tetko et al.; mined from patent text by program, amines drawn as free bases though some values may be those of a salt).
